Where do the numbers come from? From ChEMBL document CHEMBL3745622.

Target: Tyrosinase (Agaricus bisporus, UniProt O42713)
Sequence (O42713 whole entry): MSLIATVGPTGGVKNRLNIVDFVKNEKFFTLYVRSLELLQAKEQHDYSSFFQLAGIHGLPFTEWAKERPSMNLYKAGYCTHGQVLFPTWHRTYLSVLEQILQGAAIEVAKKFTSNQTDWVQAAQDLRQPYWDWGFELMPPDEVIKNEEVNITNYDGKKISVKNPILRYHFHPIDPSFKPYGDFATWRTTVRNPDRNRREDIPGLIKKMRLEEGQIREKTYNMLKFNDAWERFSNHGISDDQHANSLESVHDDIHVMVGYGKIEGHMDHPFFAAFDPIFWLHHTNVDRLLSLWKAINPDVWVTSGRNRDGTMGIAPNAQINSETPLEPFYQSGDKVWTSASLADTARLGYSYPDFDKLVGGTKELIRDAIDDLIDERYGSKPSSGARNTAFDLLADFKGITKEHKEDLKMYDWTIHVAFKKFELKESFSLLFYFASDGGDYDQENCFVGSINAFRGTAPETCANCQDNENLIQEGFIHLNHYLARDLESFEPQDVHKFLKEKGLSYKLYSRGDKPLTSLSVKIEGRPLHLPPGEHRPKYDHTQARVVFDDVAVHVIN
Listing of entries alongside the reported IC50.

Sample answers from the record:
{"Molecule": "CC(C)=CCC/C(C)=C/Cc1cc(C2CC(=O)c3c(cc(O)c(C)c3O)O2)ccc1O (centres undefined)", "IC50": "> 200 µM"}
{"Molecule": "CC(C)=CCC/C(C)=C/Cc1c(O)ccc(C2(O)COc3cc(O)cc(O)c3C2=O)c1O (centres undefined)", "IC50": "144 µM"}
{"Molecule": "CC(C)=CCc1c(O)ccc(C2COc3cc(O)c(CC=C(C)C)c(O)c3C2=O)c1O (centres undefined)", "IC50": "> 200 µM"}

With those in mind, consider the next molecule.
Given the molecule `CC(C)=CCC/C(C)=C/Cc1cc(-c2coc3cc(O)cc(O)c3c2=O)ccc1O` , what is its reported IC50? > 200 µM

###

Reported IC50 for target or system Tyrosinase (Agaricus bisporus), by entry.

Give Tyrosinase (Agaricus bisporus) IC50 for CC(C)=CCC/C(C)=C/Cc1c(O)ccc(C2(O)COc3cc(O)cc(O)c3C2=O)c1O (centres undefined) 18.4 µM

Fill in the recorded IC50 for this compound, with Tyrosinase (Agaricus bisporus) as test system: `C/C(=C\Cc1ccc(-c2coc3cc(O)cc(O)c3c2=O)cc1O)CCCC(C)(C)O` > 200 µM

So what IC50 did CC(C)=CCC/C(C)=C/Cc1c(O)ccc(C2COc3cc(O)cc(O)c3C2=O)c1O (centres undefined) get with Tyrosinase (Agaricus bisporus)? 2.9 µM

###

Ki, Tyrosinase (Agaricus bisporus, UniProt O42713): measured values
Readout Kind: Ki (µM)

I = CC(C)=CCC/C(C)=C/Cc1c(O)ccc(C2(O)COc3cc(O)cc(O)c3C2=O)c1O (centres undefined)
II = COc1cc(O)ccc1C1COc2cc3c(c(O)c2C1=O)C=CC(C)(C)O3 (centres undefined)
Between the entries labeled I and II , whose measured Ki is lower? Return value: the label identifying the chosen record. II
(II: 56.7 µM, I: 81.4 µM)

###

What follows is a collection of IC50 values obtained with Tyrosinase (Agaricus bisporus, UniProt O42713).

Some solved cases for reference:
{"Compound": "CC(C)=CCC/C(C)=C/COc1ccc(-c2coc3cc(O)cc(O)c3c2=O)cc1O", "Meas Value": "> 200 µM"}
{"Compound": "COc1c2c(cc3c1C[C@H](c1ccc(O)cc1O)CO3)OC(C)(C)C=C2", "Meas Value": "0.5 µM"}
{"Compound": "COc1c(C2COc3cc(O)c(CC=C(C)C)c(O)c3C2=O)ccc(O)c1CC=C(C)C (stereo not given)", "Meas Value": "> 200 µM"}
{"Compound": "CC(C)=CCC/C(C)=C/Cc1cc(C2Oc3cc(O)c(C)c(O)c3C(=O)C2=O)ccc1O (stereo not given)", "Meas Value": "> 200 µM"}
{"Compound": "CC(C)=CCC/C(C)=C/Cc1c(O)ccc(C2COc3cc(O)cc(O)c3C2=O)c1O (stereo not given)", "Meas Value": "128 µM"}
{"Compound": "COc1cc(C2COc3cc4c(c(OC)c3C2)C=CC(C)(C)O4)c(O)cc1O (stereo not given)", "Meas Value": "> 200 µM"}

Write down the reported IC50 of COc1cc(O)ccc1C1COc2cc3c(c(O)c2C1=O)C=CC(C)(C)O3 (stereo not given) , test system: Tyrosinase (Agaricus bisporus, UniProt O42713). 146 µM

Find the measured IC50: item CC(C)=CCCCC1(C)C=Cc2cc(-c3coc4cc(O)cc(O)c4c3=O)ccc2O1 (stereo not given) , target or system Tyrosinase (Agaricus bisporus, UniProt O42713). > 200 µM

Can you look up IC50 on Tyrosinase (Agaricus bisporus, UniProt O42713) for `C/C(=C\Cc1ccc(-c2coc3cc(O)cc(O)c3c2=O)cc1O)CCCC(C)(C)O` ? > 200 µM

Write down the reported IC50 of `CC(C)=CCC/C(C)=C/Cc1c(O)ccc(-c2coc3cc(O)cc(O)c3c2=O)c1O` , test system: Tyrosinase (Agaricus bisporus, UniProt O42713). > 200 µM

###

Molecular target: Tyrosinase (Agaricus bisporus)
Measured IC50, listed per entry for reference.

// below: answered compounds
{"Compound": "CC(C)=CCc1c(O)ccc(C2COc3cc(O)c(CC=C(C)C)c(O)c3C2=O)c1O (stereo not given)", "Study Target": "Tyrosinase (Agaricus bisporus)", "IC50": "> 200 µM"}
{"Compound": "CC(C)=CCC/C(C)=C/Cc1cc(C2Oc3cc(O)c(C)c(O)c3C(=O)C2=O)ccc1O (stereo not given)", "Study Target": "Tyrosinase (Agaricus bisporus)", "IC50": "> 200 µM"}
{"Compound": "CC(C)=CCC/C(C)=C/Cc1c(O)ccc(-c2coc3cc(O)cc(O)c3c2=O)c1O", "Study Target": "Tyrosinase (Agaricus bisporus)", "IC50": "92 µM"}

Form field: reported IC50 of `CC(C)=CCC/C(C)=C/COc1ccc(-c2coc3cc(O)cc(O)c3c2=O)cc1O` > 200 µM

Record request: IC50 value, item COc1cc(C2COc3cc4c(c(OC)c3C2)C=CC(C)(C)O4)c(O)cc1O (stereo not given) > 200 µM

###

Experiment: in vitro
Conditions: mouse, B16 cells
Description: Cytotoxicity against mouse B16 cells assessed as cell viability after 72 hrs by MTT assay
Readout Kind: CC50 at 72 h (µM)
State just the number; it will be interpreted in µM.

{"Compound": "CC(C)=CCC/C(C)=C/Cc1c(O)ccc(C2COc3cc(O)cc(O)c3C2=O)c1O (configuration not stated)", "Meas Value": 241}

Any idea what its CC50 at 72 h is? The compound is `COc1c2c(cc3c1C[C@H](c1ccc(O)cc1O)CO3)OC(C)(C)C=C2` 104

###

pKi: −log10 of the molar value.
The next entries give measured pKi for Tyrosinase (Agaricus bisporus).
Readout Kind: pKi

Consider the following illustrative entries.
{"Compound": "COc1c2c(cc3c1C[C@H](c1ccc(O)cc1O)CO3)OC(C)(C)C=C2", "pKi": 7.72}
{"Compound": "CC(C)=CCC/C(C)=C/Cc1c(O)ccc(C2COc3cc(O)cc(O)c3C2=O)c1O (centres undefined)", "pKi": 5.74}

a = CC(C)=CCC/C(C)=C/Cc1c(O)ccc(-c2coc3cc(O)cc(O)c3c2=O)c1O
b = CC(C)=CCC/C(C)=C/Cc1c(O)ccc(C2(O)COc3cc(O)cc(O)c3C2=O)c1O (centres undefined)
Just tell me: smaller pKi value, a or b ? Returns: label corresponding to the selected item. a
(a: 4.30, b: 5.12)

###

Reported IC50 values, UniProt O42713.

Enter reported IC50 observed with UniProt O42713 for COc1cc(O)ccc1C1COc2cc3c(c(O)c2C1=O)C=CC(C)(C)O3 (stereo unspecified) > 200 µM

Item CC(C)=CCC/C(C)=C/Cc1cc(C2CC(=O)c3c(cc(O)c(C)c3O)O2)ccc1O (stereo unspecified) with UniProt O42713 - IC50? > 200 µM

###

Tyrosinase (Agaricus bisporus, UniProt O42713): recorded IC50 for assorted molecules

Consider the following illustrative entries.
{"Molecule": "COc1c(C2COc3cc(O)c(CC=C(C)C)c(O)c3C2=O)ccc(O)c1CC=C(C)C (centres undefined)", "IC50": "> 200 µM"}
{"Molecule": "CC(C)=CCCCC1(C)C=Cc2cc(-c3coc4cc(O)cc(O)c4c3=O)ccc2O1 (centres undefined)", "IC50": "> 200 µM"}
{"Molecule": "CC(C)=CCC/C(C)=C/Cc1cc(-c2coc3cc(O)cc(O)c3c2=O)ccc1O", "IC50": "> 200 µM"}

Let us examine a further case.
Please give the measured IC50 for this molecule: `COc1c2c(cc3c1C[C@H](c1ccc(O)cc1O)CO3)OC(C)(C)C=C2` 0.03 µM
